STUDY TARGET: Jak2 (UniProt O60674)
Sequence (O60674 whole entry, looked up): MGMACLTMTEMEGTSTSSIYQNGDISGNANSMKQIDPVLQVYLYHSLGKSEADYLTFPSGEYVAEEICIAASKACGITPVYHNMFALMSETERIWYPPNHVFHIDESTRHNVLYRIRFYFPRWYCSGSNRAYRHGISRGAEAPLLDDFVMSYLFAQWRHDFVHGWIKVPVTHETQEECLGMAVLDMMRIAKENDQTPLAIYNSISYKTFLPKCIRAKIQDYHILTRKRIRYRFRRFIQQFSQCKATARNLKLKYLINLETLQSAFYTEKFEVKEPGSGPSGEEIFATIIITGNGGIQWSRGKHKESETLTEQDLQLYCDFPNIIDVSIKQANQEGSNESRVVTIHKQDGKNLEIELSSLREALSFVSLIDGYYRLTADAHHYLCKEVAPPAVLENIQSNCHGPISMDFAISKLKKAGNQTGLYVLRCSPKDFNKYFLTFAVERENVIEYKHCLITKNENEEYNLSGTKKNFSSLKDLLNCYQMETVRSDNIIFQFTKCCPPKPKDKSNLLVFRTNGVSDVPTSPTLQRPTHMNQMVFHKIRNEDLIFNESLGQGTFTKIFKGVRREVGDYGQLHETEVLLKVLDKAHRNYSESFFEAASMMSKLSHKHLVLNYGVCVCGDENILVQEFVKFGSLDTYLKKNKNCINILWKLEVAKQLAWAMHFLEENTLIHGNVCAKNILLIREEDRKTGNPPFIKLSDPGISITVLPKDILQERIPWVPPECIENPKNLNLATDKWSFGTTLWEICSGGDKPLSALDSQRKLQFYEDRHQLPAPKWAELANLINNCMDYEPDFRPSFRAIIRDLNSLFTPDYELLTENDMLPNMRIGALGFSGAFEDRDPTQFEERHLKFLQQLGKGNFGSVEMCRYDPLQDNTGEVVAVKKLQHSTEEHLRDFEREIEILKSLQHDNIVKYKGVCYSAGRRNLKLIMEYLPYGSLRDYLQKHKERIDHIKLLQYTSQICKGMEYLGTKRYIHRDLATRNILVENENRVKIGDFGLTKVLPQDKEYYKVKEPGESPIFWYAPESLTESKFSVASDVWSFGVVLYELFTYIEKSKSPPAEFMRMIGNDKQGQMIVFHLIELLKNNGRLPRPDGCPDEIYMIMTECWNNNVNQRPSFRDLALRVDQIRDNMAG
ASSAY: phosphorylation enrichment, bacterial display (enrichment ratio); higher = better substrate or ligand; peptides without Tyr show the background;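 further: 11-residue human phosphosite peptides and single-mutation variants displayed on the E. coli surface, counted by deep sequencing, each peptide's frequency after selection divided by its frequency in the unselected input library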;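 further: frequency after pTyr selection over input frequency; kinase dosed for 20-30% of maximal phosphorylation in three min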
PROPERTY MEASURED: phosphorylation enrichment
Response field accepts a number only; no unit should be typed.

[[record]]
chain_sequence = "DHLASYLDKVR [KRT10_Y160_R156H]"
study_target = "Jak2 (UniProt O60674)"
measurement = 0.639


Kindly state the measured phosphorylation enrichment obtained for RCKSHYAAFSV [C1QTNF1_Y145] with Jak2 (UniProt O60674).
0.737

Kindly state the measured phosphorylation enrichment obtained for VEDQYYRVDCY [FHL1_Y208_C209R] with Jak2 (UniProt O60674).
1.98

Kindly state the measured phosphorylation enrichment obtained for ILGRTHYVNHE [NEDD4_Y627_Y627H] with Jak2 (UniProt O60674).
0.582

Kindly state the measured phosphorylation enrichment obtained for KGYCGYSYDDI [TMEM230_Y110_R108C] with Jak2 (UniProt O60674).
0.891

Kindly state the measured phosphorylation enrichment obtained for RQNRFYDAKVR [FKBP6_Y188] with Jak2 (UniProt O60674).
0.81
